Target: human ether-à-go-go-related gene (hERG) potassium channel (human);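 note: peak tail current of the secondary pulse compared with the same well before compound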
Sequence (Q12809 whole entry, looked up): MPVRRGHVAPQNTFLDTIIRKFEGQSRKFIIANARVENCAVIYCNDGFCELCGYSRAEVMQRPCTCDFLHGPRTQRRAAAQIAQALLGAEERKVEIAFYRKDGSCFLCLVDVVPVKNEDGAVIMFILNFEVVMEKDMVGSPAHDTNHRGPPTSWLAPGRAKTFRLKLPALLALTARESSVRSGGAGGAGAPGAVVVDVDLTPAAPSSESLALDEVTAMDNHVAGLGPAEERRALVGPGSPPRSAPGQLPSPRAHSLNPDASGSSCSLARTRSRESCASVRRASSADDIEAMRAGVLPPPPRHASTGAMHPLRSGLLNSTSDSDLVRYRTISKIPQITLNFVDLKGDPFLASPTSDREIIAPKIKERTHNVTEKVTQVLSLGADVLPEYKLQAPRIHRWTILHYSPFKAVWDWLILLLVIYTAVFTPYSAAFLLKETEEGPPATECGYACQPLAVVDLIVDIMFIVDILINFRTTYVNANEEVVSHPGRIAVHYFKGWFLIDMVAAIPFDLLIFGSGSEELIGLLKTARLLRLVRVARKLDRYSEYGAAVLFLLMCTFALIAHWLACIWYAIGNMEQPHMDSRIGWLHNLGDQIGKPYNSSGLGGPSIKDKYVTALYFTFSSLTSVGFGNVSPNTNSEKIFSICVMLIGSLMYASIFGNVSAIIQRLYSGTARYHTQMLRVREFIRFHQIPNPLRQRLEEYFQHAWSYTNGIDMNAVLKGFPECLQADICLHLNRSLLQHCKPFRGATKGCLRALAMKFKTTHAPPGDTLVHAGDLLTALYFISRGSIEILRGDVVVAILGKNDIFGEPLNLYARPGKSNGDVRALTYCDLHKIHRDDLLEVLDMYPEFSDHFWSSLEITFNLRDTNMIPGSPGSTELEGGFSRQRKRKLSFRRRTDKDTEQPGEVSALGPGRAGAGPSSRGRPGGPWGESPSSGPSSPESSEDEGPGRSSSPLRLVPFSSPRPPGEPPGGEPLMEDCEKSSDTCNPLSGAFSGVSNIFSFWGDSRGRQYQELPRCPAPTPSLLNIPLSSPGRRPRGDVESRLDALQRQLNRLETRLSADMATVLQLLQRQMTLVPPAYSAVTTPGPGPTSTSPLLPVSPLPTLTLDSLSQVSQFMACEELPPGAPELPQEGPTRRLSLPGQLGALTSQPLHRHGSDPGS
Assay: primary screen, population patch clamp on CHO cells stably expressing hERG; higher = less effect of the substance
Hit rate of the full screen: of about 310,000 compounds, about 14,000 (4.5%) showed an effect of 50% or more. The effect is printed as a negative number. What follows is part of a selection rich in strong results, with near analogues and random picks from the rest.
Provide the recorded hERG current change (%, negative = inhibition) at 10uM for the entries that follow.
Answer in %, number only, no unit symbol.

**Query** # query: hERG current change (%, negative = inhibition) at 10uM of entry COc1ccc(Cn2c(CCC(=O)Nc3ccccc3)nc3cccnc32)cc1
**Result** -9.7

**Query** Also need CCCc1cc(NCCCN2CCOCC2)n2c(nc3ccccc32)c1C#N , thanks.
**Result** -75.7

**Query** Also need O=C(NC1CCN(Cc2ccccc2)CC1)c1cn(-c2ccccc2)nc1-c1cccnc1 , thanks.
**Result** -68

**Query** Also need CCN(CC)C(=O)c1csc(Nc2ccc(C)cc2)n1 , thanks.
**Result** -34.8

**Query** Also need COC(=O)c1cn(-c2ccccc2)nc1-c1cccnc1 , thanks.
**Result** -28.5

**Query** Also need CN1CCN(c2nc(-c3ccccc3O)nc3ccccc23)CC1 , thanks.
**Result** 9.47

**Query** Also need Cl.O=C1c2ccccc2C(=O)N1CC#CCN1CCN(C2CCCCC2)CC1 , thanks.
**Result** -40.8

**Query** Also need O=C(O)C(=O)O.S=C(NCCc1ccccc1)N1CCN(Cc2ccccc2)CC1 , thanks.
**Result** 0.0203

**Query** Also need Oc1ccccc1-c1nc(N2CCN(Cc3ccccc3)CC2)c2ccccc2n1 , thanks.
**Result** 10.5

**Query** Also need O=C(NCC(=O)N1CCN(Cc2ccccc2)CC1)c1ccc(Br)cc1 , thanks.
**Result** -53.5

**Query** Also need O=C(O)CCc1nc2cccnc2n1Cc1ccccc1 , thanks.
**Result** -24.6

**Query** Also need Cc1cc(C)n(C(=O)COc2ccccc2C)n1 , thanks.
**Result** -3.33

**Query** Also need CC(C)c1cc(NCCCN2CCOCC2)n2c(nc3ccccc32)c1C#N , thanks.
**Result** -79.9

**Query** Also need CC1(C)O[C@H]2CC(=O)OC[C@]23[C@H]2CC[C@@]4(C)[C@H](c5ccoc5)OC(=O)[C@H]5O[C@]54[C@]2(C)[C@@H](O)C[C@@H]13 , thanks.
**Result** 17.1

**Query** Also need COc1ccc(-c2c(C)n([O-])c3c([n+]2=O)CCCC3)c(OC)c1 , thanks.
**Result** 6.26

**Query** Also need Cc1nn2c(N)c(C#N)cnc2c1-c1ccc(Cl)cc1 , thanks.
**Result** -0.156

**Query** Also need O=C(NCc1ccncc1)c1cn(-c2ccccc2)nc1-c1cccnc1 , thanks.
**Result** -62

**Query** Also need CCNC(=S)N1CCN(Cc2ccccc2)CC1.O=C(O)C(=O)O , thanks.
**Result** -59.9

###

Target: human ether-à-go-go-related gene (hERG) potassium channel (human);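 note: peak tail current of the secondary pulse compared with the same well before compound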
Assay: primary screen, population patch clamp on CHO cells stably expressing hERG; higher = less effect of the substance
The campaign covered roughly 310,000 compounds. About 14,000 (4.5%) showed an effect of 50% or more. The effect is printed as a negative number. Shown is part of a subset that was picked to be rich in strong results.
Provide the recorded hERG current change (%, negative = inhibition) at 10uM for the entries that follow.
Note: a bare number is incomplete; add the unit.

**Query** # query: hERG current change (%, negative = inhibition) at 10uM of entry CC(=O)Nc1ccccc1NC(=O)c1ccc(C)cc1C
**Result** 23.7%

**Query** Also need CNC(=O)c1nc(C)n(-c2ccc([N+](=O)[O-])cc2)n1 , thanks.
**Result** -3.99%

**Query** Also need Br.C=CCn1c(=N)n(CC(=O)c2ccc(OC)cc2)c2ccccc21 , thanks.
**Result** -43.7%

**Query** Also need CCN(CC)C(=O)c1cc2c(=O)n3cccc(C)c3nc2s1 , thanks.
**Result** 15.5%

**Query** Also need CC1CC(OC(=O)c2ccccc2)(c2ccccc2)C(C)CN1C (stereo not shown) , thanks.
**Result** -8.66%

**Query** Also need COc1ccc(/C=N/NC(=O)c2ccccc2)cc1OS(=O)(=O)c1ccccc1 , thanks.
**Result** -3.53%

**Query** Also need Cc1cc(C(=O)CCl)c(C)n1CCc1ccc(F)cc1 , thanks.
**Result** 27.2%

**Query** Also need C=CCn1c(=N)n(CC(O)COc2ccccc2OC)c2ccccc21.Cl (stereo not shown) , thanks.
**Result** -67%

**Query** Also need Cc1cccc(C)c1NC(=O)CSc1ccc([N+](=O)[O-])cn1 , thanks.
**Result** -12.3%

**Query** Also need COc1ccc(CN2CCCC(C(=O)c3ccc(Cl)cc3)C2)cc1Cn1cccn1 (stereo not shown) , thanks.
**Result** -83.9%

**Query** Also need COc1ccc(OCCCCn2c(CO)nc3ccccc32)cc1 , thanks.
**Result** -24.5%

**Query** Also need COc1ccccc1OC[C@H](O)CO , thanks.
**Result** 24%

**Query** Also need CCn1c(C)[n+](CCOCC[n+]2c(C)n(CC)c3cc(Cl)c(Cl)cc32)c2cc(Cl)c(Cl)cc21.[I-] , thanks.
**Result** 6.82%

**Query** Also need CCn1c(/C=C/N(C(C)=O)c2ccccc2)[n+](CC)c2ccc(Cl)cc21.[I-] , thanks.
**Result** 2.3%

**Query** Also need COc1ccc2c(c1)C=C([C@@H]1C[C@H]3CN(c4ccccc4)C(=O)[C@]34CCCN14)CO2 , thanks.
**Result** -49.2%

**Query** Also need C=CCNC(=O)CC(=O)N/N=C/c1ccc(F)cc1 , thanks.
**Result** -3.54%

**Query** Also need CC(=O)Nc1ccc(S(=O)(=O)N2CCC(c3nnc(-c4ccc(C)cc4)o3)CC2)cc1 , thanks.
**Result** -51.1%

**Query** Also need CCOC(=O)C(=O)Nc1nc(-c2ccccc2)c(-c2ccccc2)o1 , thanks.
**Result** -32.1%

**Query** Also need CCOCC(=O)Nc1ccc2c(c1)OCCO2 , thanks.
**Result** 19.6%

**Query** Also need Cc1ccc(NC(=O)c2nc(C)n(-c3ccc([N+](=O)[O-])cc3)n2)cc1 , thanks.
**Result** -32.2%

**Query** Also need Cc1cccc(CCN2C(N(C)C)=NC[C@@H]2C)c1 , thanks.
**Result** -7.74%

**Query** Also need O=C1NC(Nc2nc3ccccc3s2)(C(F)(F)F)C(=O)N1C1CCCCC1 (stereo not shown) , thanks.
**Result** -6.17%
